The entries below come with measured Ki values attached.
target: UniProtKB P46098
Sequence (P46098 24-478): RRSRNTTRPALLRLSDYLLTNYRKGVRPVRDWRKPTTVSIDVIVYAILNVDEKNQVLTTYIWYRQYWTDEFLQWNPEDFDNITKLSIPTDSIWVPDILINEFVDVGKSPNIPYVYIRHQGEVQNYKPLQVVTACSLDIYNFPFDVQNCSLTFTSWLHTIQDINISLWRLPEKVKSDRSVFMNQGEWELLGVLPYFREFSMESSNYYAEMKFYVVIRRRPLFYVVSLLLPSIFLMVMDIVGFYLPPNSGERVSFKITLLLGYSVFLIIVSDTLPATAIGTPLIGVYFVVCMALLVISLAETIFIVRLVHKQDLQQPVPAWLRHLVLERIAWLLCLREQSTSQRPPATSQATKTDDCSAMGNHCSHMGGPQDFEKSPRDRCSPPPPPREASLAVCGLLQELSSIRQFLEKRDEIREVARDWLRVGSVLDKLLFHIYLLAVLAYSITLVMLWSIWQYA
test.method.notes: radioligand binding assay (SPA format), [9-methyl-3H]BRL-43694 displacement
details: human 5-HT3 receptor membranes, 10 nM [3H]BRL-43694; Ki from Cheng Prusoff equation; read-out: h5-HT3A Ki
endpoint: Ki (nM)

INSERT INTO results (molecule, observed_value) VALUES
  ('O=C1c2cccc3[nH]cc(c23)CCN1[C@@H]1CN2CCC1CC2 [Example 29]', 3),
  ('Cn1cc2c3c(cccc31)C(=O)N([C@H]1CN3CCC1CC3)CC2 [Example 34]', 8),
  ('Cn1cc(C(=O)[C@@H]2CCc3nc[nH]c3C2)c2ccccc21 [Ramosetron, reference compound]', 0.06),
  ('Cn1cc2c3c(cccc31)C(=O)N([C@@H]1CN3CCC1CC3)CC2 [Example 31]', 1),
  ('O=C1c2cccc3[nH]cc(c23)CCN1[C@H]1CN2CCC1CC2 [Example 33]', 49),
  ('O=C1c2cccc3c2c(cn3Cc2ccccc2)CCN1[C@H]1CN2CCC1CC2 [Example 35]', 13),
  ('CN1C2CCCC1CC(N1CCc3cn(C)c4cccc(c34)C1=O)C2 (stereo not shown) [Example 37]', 267),
  ('Cn1cc2c3c(cccc31)C(=O)N([C@@H]1CN3CCC1CC3)C2 [Example 4]', 1),
  ('O=C1c2cccc3c2c(cn3Cc2ccccc2)CCN1[C@@H]1CN2CCC1CC2 [Example 32]', 1),
  ('CN1CC2CCCC1CC(N1Cc3cn(C)c4cccc(c34)C1=O)C2 (stereo not shown) [Example 5]', 13);
